Each item that follows carries a reported remaining binding at 1 µM.
- TEST_SYSTEM: EPHA8 (Homo sapiens, UniProt P29322)
- Construct: purchased Eurofins DiscoverX KINOMEscan (scanTK)
- Sequence (P29322 28-1005): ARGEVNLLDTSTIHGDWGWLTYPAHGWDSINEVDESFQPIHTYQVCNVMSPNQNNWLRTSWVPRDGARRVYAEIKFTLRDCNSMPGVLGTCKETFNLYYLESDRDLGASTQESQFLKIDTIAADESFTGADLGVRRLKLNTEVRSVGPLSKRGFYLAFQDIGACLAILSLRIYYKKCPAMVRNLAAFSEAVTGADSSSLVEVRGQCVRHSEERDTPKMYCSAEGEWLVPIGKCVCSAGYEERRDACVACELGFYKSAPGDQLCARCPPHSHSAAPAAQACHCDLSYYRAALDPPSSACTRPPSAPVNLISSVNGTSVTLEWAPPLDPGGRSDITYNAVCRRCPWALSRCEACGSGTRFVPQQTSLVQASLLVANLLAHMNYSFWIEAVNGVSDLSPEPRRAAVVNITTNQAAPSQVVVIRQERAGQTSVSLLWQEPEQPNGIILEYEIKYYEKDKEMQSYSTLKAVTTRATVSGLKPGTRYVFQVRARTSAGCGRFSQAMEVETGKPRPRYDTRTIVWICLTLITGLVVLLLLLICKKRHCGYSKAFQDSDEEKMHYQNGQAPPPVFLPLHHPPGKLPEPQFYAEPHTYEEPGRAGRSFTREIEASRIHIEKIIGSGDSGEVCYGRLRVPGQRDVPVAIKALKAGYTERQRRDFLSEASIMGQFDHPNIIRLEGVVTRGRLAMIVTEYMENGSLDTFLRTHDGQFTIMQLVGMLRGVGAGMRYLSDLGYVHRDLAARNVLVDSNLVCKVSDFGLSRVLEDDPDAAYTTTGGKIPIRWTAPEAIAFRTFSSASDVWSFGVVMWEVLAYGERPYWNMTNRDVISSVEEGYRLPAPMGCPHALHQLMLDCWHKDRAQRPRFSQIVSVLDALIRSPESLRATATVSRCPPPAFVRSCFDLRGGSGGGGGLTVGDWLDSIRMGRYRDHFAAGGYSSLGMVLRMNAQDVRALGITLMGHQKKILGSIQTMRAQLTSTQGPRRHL
- MEASUREMENT_NOTES: KINOMEscan ScanTK
- Format: binding
- CONDITIONS_USED: read-out: %Control @1000nM
METRIC: remaining binding at 1 µM (%)

- COMPOUND: "COC(=O)c1cnc(S(C)(=O)=O)nc1N1CCCC(n2nc(-c3ccc(Oc4ccccc4)cc3)c3c(N)ncnc32)C1 (centres unmarked) [Compound 8b]"
  READING_UNIT: "%"
  REPORTED_MEASUREMENT: 77
- COMPOUND: "CNC(=O)c1cnc(S(C)(=O)=O)nc1N1CCCC(n2nc(-c3ccc(Oc4ccccc4)cc3)c3c(N)ncnc32)C1 (centres unmarked) [Compound 8d]"
  READING_UNIT: "%"
  REPORTED_MEASUREMENT: 93
- COMPOUND: "C=CC(=O)N1CCC[C@@H](n2nc(-c3ccc(Oc4ccccc4)cc3)c3c(N)ncnc32)C1 [Compound 1g, Ibrutinib, reference compound]"
  READING_UNIT: "%"
  REPORTED_MEASUREMENT: 69
- COMPOUND: "Cc1cnc(S(C)(=O)=O)nc1N1CCCC(n2nc(-c3ccc(Oc4ccccc4)cc3)c3c(N)ncnc32)C1 (centres unmarked) [Compound 8a]"
  READING_UNIT: "%"
  REPORTED_MEASUREMENT: 82
- COMPOUND: "CCOC(=O)c1cnc(S(C)(=O)=O)nc1N1CCC[C@@H](n2nc(-c3ccc(Oc4ccccc4)cc3)c3c(N)ncnc32)C1 [Compound 8c]"
  READING_UNIT: "%"
  REPORTED_MEASUREMENT: 88
